System: Enterococcus faecalis
Test: In vitro antibacterial activity, standard agar dilution method, Enterococcus faecalis
Type: cell-based
Conditions: clinical strains
measured.endpoint: antibacterial activity Enterococcus faecalis (µg/mL)
Numbers only, in µg/mL.

Example compounds with recorded antibacterial activity Enterococcus faecalis:
>  <smiles.record>
Cn1nnc(Nc2ccc(-c3ccc(N4C[C@H](CO)OC4=O)cc3F)cn2)n1

>  <observed.result>
1

$$$$
>  <smiles.record>
Cn1nnnc1Nc1ccc(-c2ccc(N3C[C@H](CO)OC3=O)cc2F)cn1

>  <observed.result>
0.25

$$$$

Okay, next one:
compound `CC(=O)NC[C@H]1CN(c2ccc(-c3ccc(Nc4nnn(C)n4)nc3)c(F)c2)C(=O)O1` , antibacterial activity Enterococcus faecalis observed: 0.25

* * *

Assay: In vivo pharmacokinetics test on rat, I.V (intravenous push)
Settings: male SD rat, 0.75 mg/kg, plasma, Compound 3 itself detected, read-out: Vss
measured.endpoint: Vd (L/kg)
Answers are plain numbers, in L/kg.

compound `CC(=O)NC[C@H]1CN(c2ccc(-c3ccc(Nc4nnn(C)n4)nc3)c(F)c2)C(=O)O1` , Vd observed: 0.37

* * *

Assay: In vivo pharmacokinetics test on rat, P.O (lavage)
Conditions: po; male SD rat, P.O, 1 mg/kg; plasma; Compound 3 itself detected
measured.endpoint: Tmax
Enter the number, and then the unit.

compound `CC(=O)NC[C@H]1CN(c2ccc(-c3ccc(Nc4nnn(C)n4)nc3)c(F)c2)C(=O)O1` , Tmax observed: 4 h

* * *

Experiment: In vivo pharmacokinetics test on rat, I.V (intravenous push)
Details: male SD rat, 0.75 mg/kg, plasma, Compound 3 itself detected
measured.endpoint: half-life (h)
Answers are plain numbers, in h.

compound CC(=O)NC[C@H]1CN(c2ccc(-c3ccc(Nc4nnn(C)n4)nc3)c(F)c2)C(=O)O1 [Compound 3] , half-life observed: 5.29

* * *

Assay: In vivo pharmacokinetics test on rat, P.O (lavage)
Details: po; male SD rat, P.O, 1 mg/kg; plasma; Compound 3 itself detected
measured.endpoint: half-life (h)
Give bare numbers, in h.

compound `CC(=O)NC[C@H]1CN(c2ccc(-c3ccc(Nc4nnn(C)n4)nc3)c(F)c2)C(=O)O1` , half-life observed: 5.55
